Test: clinical
Type: in vivo
Cond: both sexes, human, in vivo, po
Reported metric: half-life

### Prompt State the recorded half-life for this entry: `O=C(c1cccnc1-c1ccncc1)N1CCC(O)(Cc2ccccc2)CC1`
### Response 0.82 to 7.16 h

====

Test: Healthy Japanese subjects, Part 2 (100, 200, 300 mg BID up-titration): PK of TAK-935 and M-I
Assay type: in vivo, human
Cond: human, plasma, oral, 300 mg, TAK-935; Day 21, 300 mg BID; read-out: mean Cmax
Reported metric: Cmax (ng/mL)
Note: unit ng/mL is implicit; provide only the numeric part.

### Prompt State the recorded Cmax for this entry: `O=C(c1cccnc1-c1ccncc1)N1CCC(O)(Cc2ccccc2)CC1`
### Response 2060

====

Test: Healthy Japanese subjects, Part 2 (100, 200, 300 mg BID up-titration): PK of TAK-935 and M-I
Assay type: in vivo, human
Cond: human, plasma, oral, 300 mg, Day 21 (300 mg BID), Part 2, Geo Mean; read-out: Cmax
Reported metric: Cmax (ng/mL)
Note: unit ng/mL is implicit; provide only the numeric part.

### Prompt State the recorded Cmax for this entry: `O=C(c1cccnc1-c1ccncc1)N1CCC(O)(Cc2ccccc2)CC1`
### Response 1940

====

Test: Healthy Japanese subjects, Part 2 (100, 200, 300 mg BID up-titration): PK of TAK-935 and M-I
Assay type: in vivo, human
Cond: human, plasma, oral, 200 mg, Day 14 (200 mg BID), Part 2, Mean; read-out: Tmax
Reported metric: Tmax (min)
Note: unit min is implicit; provide only the numeric part.

### Prompt State the recorded Tmax for this entry: `O=C(c1cccnc1-c1ccncc1)N1CCC(O)(Cc2ccccc2)CC1`
### Response 40

====

Test: clinical
Format: in vivo
Cond: both sexes, human, in vivo, po, 50 mg, Cmax, mean
Reported metric: Cmax (ng/mL)
Note: unit ng/mL is implicit; provide only the numeric part.

### Prompt State the recorded Cmax for this entry: `O=C(c1cccnc1-c1ccncc1)N1CCC(O)(Cc2ccccc2)CC1`
### Response 210

====

Test: Healthy Japanese subjects, Part 1 (single dose 200, 600, 1200 mg tablets): PK of TAK-935 and M-I
Format: in vivo, human
Cond: human, oral; TAK-935 200 mg single dose, plasma, mean
Reported metric: AUC(0-inf) (ng·h/mL)
Note: unit ng·h/mL is implicit; provide only the numeric part.

### Prompt State the recorded AUC(0-inf) for this entry: O=C(c1cccnc1-c1ccncc1)N1CCC(O)(Cc2ccccc2)CC1 [soticlestat]
### Response 720

====

Test: clinical
Type: in vivo
Cond: both sexes, human, in vivo, po, 15 mg, Cmax, mean
Reported metric: Cmax (ng/mL)
Note: unit ng/mL is implicit; provide only the numeric part.

### Prompt State the recorded Cmax for this entry: `O=C(c1cccnc1-c1ccncc1)N1CCC(O)(Cc2ccccc2)CC1`
### Response 43.5

====

Test: Healthy Japanese subjects, Part 2 (100, 200, 300 mg BID up-titration): PK of TAK-935 and M-I
Format: in vivo, human
Cond: human, plasma, oral, 100 mg, Day 1, TAK-935 100 mg BID, plasma, median; read-out: tmax
Reported metric: Tmax (min)
Note: unit min is implicit; provide only the numeric part.

### Prompt State the recorded Tmax for this entry: O=C(c1cccnc1-c1ccncc1)N1CCC(O)(Cc2ccccc2)CC1 [soticlestat]
### Response 45
